- assayed.target: T1, PIGQ peptide/HLA-A0201 complex (human, biotinylated (site not stated))
- T1 construct: Negative control / counter target complex; also called PIGQ/HLA; PIGQ/HLA complex
- experiment: ELISA as in Example 3; biotinylated peptide/HLA complex coated at 50 nM on Neutravidin plates, IgG titrated, AP-conjugated goat anti-human IgG, RFU
readout: binding result

Cyprus (IgG1) (antibody, V domains shown) VH: QVQLVESGGGLVKPGGSLRLSCAASGFTFSDYYMSWIRQAPGKGLEWVSYISSSGSTIYYADSVKGRFTISRDNAKNSLYLQMNSLRAEDTAVYYCARDGLRYFYGFDYWGQGTLVTVSS VL: QSVLTQPPSVSAAPGQKVTISCSGSSSNIGNNYVSWYQQLPGTAPKLLIYDNNKRPSGIPDRFSGSKSGTSATLGITGLQTEDEADYYCQAWVHYSLVHWVFGGGTKLTVLG : no binding
Elfu (IgG1) (antibody, V domains shown) VH: EVQLVQSGAEVKKPGESLKISCKGSGYSFTSYWISWVRQMPGKGLEWMGIIYPGTSYTRYSPSFQGQVTISADKSISTAYLQWSSLKASDTAMYYCARGYHLPYFDYWGQGTLVTVSS VL: QSVLTQPPSVSGAPGQRVTISCTGSSSNIGAGYDVHWYQQLPGTAPKLLIYGNSNRPSGVPDRFSGSKSGTSASLAITGLQAEDEADYYCQAYASPTRVVFGGGTKLTVLG : no binding
Daniel (IgG1) (antibody, V domains shown) VH: QVQLVQSGAEVKKPGASVKVSCKASGYTFTSYYMHWVRQAPGQGLEWMGIINPSGGSTSYAQKFQGRVTMTRDTSTSTVYMELSSLRSEDTAVYYCAREGYTPGGSYTFDIWGQGTLVTVSS VL: QSVLTQPPSVSAAPGQKVTISCSGSSSNIGNNYVSWYQQLPGTAPKLLIYDNNKRPSGIPDRFSGSKSGTSATLGITGLQTEDEADYYCGSWDGFVSSYSVFGGGTKLTVLG : no binding

Each recorded value in this set is attributed to patent US20210024635A1.
